// data source = PubChem BioAssay (NCI)

# METHOD NOTES: NCI Yeast Anticancer Drug Screen. Data for the mec2-1 strain (AID 157)
# TEST CONDITIONS: S. cerevisiae mec2-1 strain, at 50.0 µM, active compounds read high
This is part of a sample that, as a whole, favours compounds with a hit. Of some 79,000 tested, about 15% had one in any assay.
TEST READOUT: growth inhibition (%)
Give bare numbers, in %.

>  <COMPOUND>
O=C(c1cccc(F)c1)c1ccccc1Cc1ccccc1

>  <growth inhibition (%)>
4.2

$$$$
>  <COMPOUND>
CCC(C#N)NC(=O)NC(C#N)CC (stereo unspecified)

>  <growth inhibition (%)>
14.6

$$$$
>  <COMPOUND>
CCCCCCCCCCCCCCCCCC(=O)OC(C(O)C=O)C(O)C(O)CO (stereo unspecified)

>  <growth inhibition (%)>
16.3

$$$$
>  <COMPOUND>
CCOC(=O)c1nnc(-c2ccccc2)nc1Cl

>  <growth inhibition (%)>
3.45

$$$$
>  <COMPOUND>
O=C1C2Cc3ccccc3CN2C(=O)N1CCN1CCCC1 (stereo unspecified)

>  <growth inhibition (%)>
-33.7

$$$$

Working through the 6 compounds below one at a time, give growth inhibition for each.
1. C/C(=N\NC(=S)NC(C)C)c1nc2ncccc2[nH]1
2. O=C(O)C1=C(C(=O)O)C2CCCC3C4CCCCC4N(N1)C23 (stereo unspecified)
3. CCOC(=O)N1N=C(c2ccccc2)OC2(N3CCCC3)CCC(C(C)(C)C)CC12 (stereo unspecified)
4. Cc1ccc(S(=O)(=O)N/N=C2/CCC(C(C)(C)C)CC2Br)cc1 (stereo unspecified)
5. Cc1ccc(NC(=O)c2ccc(Cl)cc2)cc1
6. Cc1c2oc3c(C)ccc(C(=O)NCCc4ccccn4)c3nc-2c(C(=O)NCCc2ccccn2)c(N)c1=O

Reply:
1. -17.6
2. -13.9
3. 10.6
4. -2.4
5. 1.2
6. -8.05

###

Could you please report measured growth inhibition for the items listed next?
# METHOD NOTES: NCI Yeast Anticancer Drug Screen. Data for the sgs1 mgt1 strain (AID 161);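 further: 0% = growth of cultures given vehicle only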
# TEST CONDITIONS: S. cerevisiae sgs1 mgt1 strain, at 50.0 µM, active compounds read high
About 79,000 compounds went through this panel and 15% of them were active in at least one assay; those are over-represented in the sample as a whole.
Answers are plain numbers, in %.

Items follow; give growth inhibition for each.
1. Cc1ccccc1N=Nc1c(-c2ccccc2)nn(C(N)=S)c1-c1ccccc1
2. CC1/C(=N\Nc2ccc([N+](=O)[O-])cc2[N+](=O)[O-])CCC2C1(C)CCC1C2(C)CCC2(C)C3CC(C)(C)CCC3(C)CCC12C (configuration not stated)
3. O=C(/C=N/O)Nc1cccc(Cl)c1I
4. O=Cc1cccc(/C=N/Nc2nnc(N/N=C/c3cccc(C=O)c3)c3ccccc23)c1

Reply:
1: 24.1; 2: 9.8; 3: 30.1; 4: 35.5

Record growth inhibition per entry; entries follow.
1. COc1cccc(/C=C2\C(=O)N(C(=O)c3ccc(NC(C)=O)cc3)N=C2C)c1
2. COc1ccc(OC)c(NC(=O)CCC/C(CC(=O)c2ccc(O)c(OC)c2)=N\Nc2ccc([N+](=O)[O-])cc2)c1
3. Cc1ccc(P(=S)(c2ccc(C)c3ccccc23)c2ccc(C)c3ccccc23)c2ccccc12
4. CCCCCCCCCCCCCCCSc1ccc2ccccc2c1
5. C=CCNC(=S)N1CC(C)C(=O)Nc2ccccc21 (configuration not stated)

Reply:
[-57, -38.5, -3.4, -5.2, -29.9]

Field: growth inhibition. Fill in for each record below.
1. C(#[C][Sn]([c]1ccccc1)([c]1ccccc1)[c]1ccccc1)c1ccccc1
2. C[N+](C)(C)c1ccc2ccccc2n1
3. COc1ccc(/C(=N\NC(=O)NN)C(c2ccc(OC)cc2)C2(O)C(=O)Nc3c(Cl)cc(Cl)cc32)cc1 (configuration not stated)
4. CC(Br)C(=O)NCC(=O)NCC(=O)O (configuration not stated)

Reply:
1: 97.8; 2: -19.9; 3: -57; 4: -4.2

Go through the items and report each one's growth inhibition.
1. O=[N+]([O-])c1cc(Cl)c(Cl)c(Cl)c1Cl
2. Cc1cc(C)c(N)cc1C
3. CCN1C(=O)N(CC)C2(CC(=O)c3ccccc3O2)C1=O (configuration not stated)

Reply:
[-1, -20.4, 20.2]

###

# METHOD NOTES: NCI Yeast Anticancer Drug Screen. Data for the mec2-1 strain (AID 157)
# TEST CONDITIONS: S. cerevisiae mec2-1 strain, at 50.0 µM, active compounds read high
# Description: Growth inhibition of yeast strains with defined genetic alterations is measured as a screen for potential anti-cancer activity. Selected strains with alterations in DNA damage repair or cell cycle control were exposed to compounds and growth inhibition was measured relative to vehicle treated controls. The strain used in this assay is mec2-1
This is part of a sample that, as a whole, favours compounds with a hit. Of some 79,000 tested, about 15% had one in any assay.
TEST READOUT: growth inhibition (%)
Numbers only, in %.

Before answering, review these 3 worked examples.
>  <MOLECULE>
O=C(N/N=C/C1CCCCC1)C(=O)N/N=C/C1CCCCC1

>  <growth inhibition, %>
6.65

$$$$
>  <MOLECULE>
CC(=O)OC[C@@H](OC(C)=O)[C@@H](OC(C)=O)[C@H]1OC[C@@H]2C[C@H]([C@H]1OC(C)=O)N(Cc1ccccc1)O2

>  <growth inhibition, %>
-13.8

$$$$
>  <MOLECULE>
CSCCCCCSC

>  <growth inhibition, %>
-27.1

$$$$

Give measured growth inhibition for every item shown.
1. c1ccc(-n2nnnc2-c2nnnn2-c2ccccc2)cc1
2. COc1ccc(/C=C\c2cc(OC)c(OC)c(OC)c2)cc1OCC(=O)O
3. CCCCCCCCCCCCCCCCCC(=O)N1CC[N+](C)(C)CC1
4. O=S(=O)(O)C(c1ccccc1)C(O)c1ccccc1 (configuration not stated)
5. S=C(NCc1cccc2ccccc12)Nc1ccccc1
6. Cc1nc(N)c(N=O)c(=O)[nH]1

Reply:
-5.2
-1.75
99.7
-8.95
7.8
8.75

###

# METHOD NOTES: NCI Yeast Anticancer Drug Screen. Data for the cln2 rad14 strain (AID 165);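 further: 0% = growth equal to vehicle treated cultures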
# TEST CONDITIONS: S. cerevisiae cln2 rad14 strain, at 50.0 µM, active compounds read high
The panel holds about 79,000 compounds, 15% with a hit somewhere; the sample as a whole holds those more often.
Answer criterion not met if growth inhibition is under -20%, and criterion met if it is -20% or more.

Example entries begin here.
>  <COMPOUND>
O=C(Nc1ccn(C2CCC(CO)O2)c(=O)n1)c1ccccc1 (stereo unspecified)

>  <QUALITATIVE LABEL>
criterion not met

$$$$
>  <COMPOUND>
c1ccc(Cc2c[nH]c3ccccc23)cc1

>  <QUALITATIVE LABEL>
criterion met

$$$$
>  <COMPOUND>
NNC(=O)CC(O)C(=O)NN (stereo unspecified)

>  <QUALITATIVE LABEL>
criterion met

$$$$
>  <COMPOUND>
CN(C)C1C(=O)c2ccccc2C1=O

>  <QUALITATIVE LABEL>
criterion met

$$$$

Query: Is reported growth inhibition greater than or equal to -20% here: CCSCC1C(=O)C23C(O)C1CCC2C12COC3(O)C(O)C1C(C)(C)CCC2O (stereo unspecified)
Reply: criterion met

###

For each record, write down the corresponding growth inhibition.
# METHOD NOTES: NCI Yeast Anticancer Drug Screen. Data for the rad50 strain (AID 155);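 further: 0% = growth of vehicle-only cultures of the same strain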
# TEST CONDITIONS: S. cerevisiae rad50 strain growth inhibition; at 50.0 µM; active compounds read high
Compounds without any hit were thinned out: in the full panel of roughly 79,000, 15% have a hit.
Numbers only, in %.

Example compounds with recorded growth inhibition:
>  <COMPOUND>
CCOC(=O)/C=C/C1(CCOC(C)=O)CCCCC1

>  <UNIT ABBREV>
%

>  <growth inhibition>
12.8

$$$$
>  <COMPOUND>
Cc1c2oc3c(C)ccc(C(=O)NCCc4ccccn4)c3nc-2c(C(=O)NCCc2ccccn2)c(N)c1=O

>  <UNIT ABBREV>
%

>  <growth inhibition>
5.9

$$$$

Okay, here is my list. What is growth inhibition for each of these?
1. CCCC(O)C(=O)C(CCC)N(CC)CC (centres undefined)
2. C/C(=N\O)c1ccc2[nH]c(C)cc(=O)c2c1
3. C#CC(OC(=O)c1cc([N+](=O)[O-])cc([N+](=O)[O-])c1)C1OC(C)(C)OC1C1COC(C)(C)O1 (centres undefined)
4. c1ccc(Cn2cccc2N=Nc2ccccc2)cc1
5. COC(=O)c1c(C=O)cccc1[N+](=O)[O-]
6. C[N+](C)(C)c1ccc2ccccc2n1
7. CC(C)=NNC(=S)NC12CC3CC(CC(C3)C1)C2

Reply:
2.5
2.95
27
26.4
22.7
-9.15
29.4

For the 3 compounds below, give their growth inhibition values.
1. CCOC(=O)C(/C=N\C(=S)Nc1ccc(OCC)cc1)=C(/O)c1ccccc1
2. CCOC(=O)C(Cc1c[nH]c2ccccc12)NC(=O)C1(O)C(O)C2(CC)C=CCN3CCC4(c5cc(C6(C(=O)OC)CC7CC(CC)CN(CCc8c6[nH]c6ccccc86)C7)c(OC)cc5N(C)C14)C32 (centres undefined)
3. c1cc2c3c(cc4c(c3c1)CCCC4)CC2

Reply:
1. -49.1
2. 20.8
3. -6.95
